Target: hFASN enzyme (full length) (Homo sapiens, UniProt P49327)
Construct: 10 μL hFASN enzyme (full length, 300 ng, purified in house); made in house
Sequence (P49327 whole entry): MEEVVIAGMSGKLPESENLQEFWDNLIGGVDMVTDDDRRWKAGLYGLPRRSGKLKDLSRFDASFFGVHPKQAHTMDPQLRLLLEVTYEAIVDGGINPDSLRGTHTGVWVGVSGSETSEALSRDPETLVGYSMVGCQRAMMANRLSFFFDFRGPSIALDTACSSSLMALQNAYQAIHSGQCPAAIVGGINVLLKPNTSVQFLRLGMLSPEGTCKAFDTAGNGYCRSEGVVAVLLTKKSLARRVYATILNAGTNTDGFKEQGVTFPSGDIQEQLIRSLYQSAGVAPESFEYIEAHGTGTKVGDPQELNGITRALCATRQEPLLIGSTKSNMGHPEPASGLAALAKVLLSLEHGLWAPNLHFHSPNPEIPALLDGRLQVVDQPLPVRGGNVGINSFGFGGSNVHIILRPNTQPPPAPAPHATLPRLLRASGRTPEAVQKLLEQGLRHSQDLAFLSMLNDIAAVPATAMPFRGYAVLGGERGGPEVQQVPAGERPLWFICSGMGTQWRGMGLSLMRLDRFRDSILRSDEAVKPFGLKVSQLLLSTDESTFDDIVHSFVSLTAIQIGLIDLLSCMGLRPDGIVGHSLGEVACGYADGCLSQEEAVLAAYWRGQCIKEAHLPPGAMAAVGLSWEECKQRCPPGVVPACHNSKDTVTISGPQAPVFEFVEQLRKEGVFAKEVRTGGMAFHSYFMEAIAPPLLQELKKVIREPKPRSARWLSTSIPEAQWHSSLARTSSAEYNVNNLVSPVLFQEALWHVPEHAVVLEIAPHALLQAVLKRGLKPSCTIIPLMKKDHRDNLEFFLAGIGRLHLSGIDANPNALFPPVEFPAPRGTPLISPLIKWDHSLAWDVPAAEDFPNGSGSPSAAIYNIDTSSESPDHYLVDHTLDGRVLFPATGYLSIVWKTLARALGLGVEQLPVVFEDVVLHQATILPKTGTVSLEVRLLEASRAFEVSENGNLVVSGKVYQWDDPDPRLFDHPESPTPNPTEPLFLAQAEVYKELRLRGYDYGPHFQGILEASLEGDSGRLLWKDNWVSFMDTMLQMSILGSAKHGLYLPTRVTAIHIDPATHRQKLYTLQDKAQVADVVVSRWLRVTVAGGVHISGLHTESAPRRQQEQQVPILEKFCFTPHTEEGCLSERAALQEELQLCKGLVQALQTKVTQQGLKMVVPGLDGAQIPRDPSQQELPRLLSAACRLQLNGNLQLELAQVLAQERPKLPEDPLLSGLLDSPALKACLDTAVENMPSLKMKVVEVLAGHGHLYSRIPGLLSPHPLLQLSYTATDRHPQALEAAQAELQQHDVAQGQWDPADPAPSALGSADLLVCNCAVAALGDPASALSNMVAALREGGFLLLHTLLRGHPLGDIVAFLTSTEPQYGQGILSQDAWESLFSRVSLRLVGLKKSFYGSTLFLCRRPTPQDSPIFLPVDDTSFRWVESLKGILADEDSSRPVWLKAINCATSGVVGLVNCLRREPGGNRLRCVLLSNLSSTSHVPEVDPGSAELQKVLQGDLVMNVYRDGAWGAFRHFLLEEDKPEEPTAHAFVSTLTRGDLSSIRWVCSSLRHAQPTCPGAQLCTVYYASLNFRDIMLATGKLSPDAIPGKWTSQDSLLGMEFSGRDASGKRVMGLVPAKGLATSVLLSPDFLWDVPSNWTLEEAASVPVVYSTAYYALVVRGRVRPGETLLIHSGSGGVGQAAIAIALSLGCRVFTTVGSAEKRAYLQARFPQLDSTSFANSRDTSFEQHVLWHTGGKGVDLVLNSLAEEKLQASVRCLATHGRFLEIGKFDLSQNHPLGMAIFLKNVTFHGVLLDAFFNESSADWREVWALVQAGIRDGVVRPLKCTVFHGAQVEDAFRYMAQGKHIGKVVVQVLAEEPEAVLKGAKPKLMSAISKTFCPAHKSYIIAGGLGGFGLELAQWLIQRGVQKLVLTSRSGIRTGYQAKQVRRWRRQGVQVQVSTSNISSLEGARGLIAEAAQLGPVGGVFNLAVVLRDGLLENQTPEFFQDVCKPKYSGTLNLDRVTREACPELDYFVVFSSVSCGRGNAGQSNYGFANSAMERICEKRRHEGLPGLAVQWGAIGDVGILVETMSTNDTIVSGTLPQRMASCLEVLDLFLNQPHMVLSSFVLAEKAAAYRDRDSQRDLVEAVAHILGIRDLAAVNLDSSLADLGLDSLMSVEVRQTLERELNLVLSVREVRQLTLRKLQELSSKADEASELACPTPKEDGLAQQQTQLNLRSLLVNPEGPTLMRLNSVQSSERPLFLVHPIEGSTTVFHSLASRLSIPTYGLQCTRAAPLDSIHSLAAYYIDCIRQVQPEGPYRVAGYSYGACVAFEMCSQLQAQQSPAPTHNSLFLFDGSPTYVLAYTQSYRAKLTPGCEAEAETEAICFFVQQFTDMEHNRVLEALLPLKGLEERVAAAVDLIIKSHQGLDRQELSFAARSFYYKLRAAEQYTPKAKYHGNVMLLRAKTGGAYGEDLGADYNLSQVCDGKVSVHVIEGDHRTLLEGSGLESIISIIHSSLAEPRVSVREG
Experiment: Fatty Acid Synthase (FASN) inhibition scintillation proximity assay
Format: biochemical
Conditions: read-out: Human FASN pIC50 (converted)
outcome measure: IC50

O=C(C1CC1)N1CC(CN2C(=O)C3(CCN(C(=O)C(F)(F)F)CC3)N=C2c2ccc(-c3ccc4c(ccn4C(=O)C(F)(F)F)c3)cc2)C1 | > 10 µM

Continue with the next compound.
Incoming: Need IC50 of `CS(=O)(=O)N1CC[C@@H](CN2C(=O)C3(CCOCC3)N=C2c2ccc(-c3ccc4occc4c3)cc2)C1` , thanks.
Outgoing: > 10 µM

----------
Target: hFASN enzyme (full length) (Homo sapiens, UniProt P49327)
Construct: 10 μL hFASN enzyme (full length, 300 ng, purified in house); made in house
Assay: Fatty Acid Synthase (FASN) inhibition scintillation proximity assay
Assay type: biochemical
Conditions: read-out: Human FASN % inhibition @ 10 μM, 10 μM test compound
outcome measure: inhibition at 10 µM (%)
State just the number; it will be interpreted in %.

Please review the following examples before continuing.
O=C(C1CC1)N1CC[C@H](CN2C(=O)C3(CC3)N=C2c2ccc(-c3ccc(O)cc3)cc2)C1 [compound 408] | 63
O=C(C1CC1)N1CC[C@@H](CN2C(=O)C3(CC3)N=C2c2ccc(-c3ccc4[nH]c(CO)cc4c3)cc2)C1 [compound 216] | 102
COC(=O)N1CC2(C1)N=C(c1ccc(-c3ccc4c(cnn4C)c3)cc1)N(C[C@@H]1CCN(C(=O)C(F)(F)F)C1)C2=O [compound 907] | 21
Cc1cc(-c2ccc3[nH]ccc3c2)ccc1C1=NC2(CCCC2)C(=O)N1C[C@@H]1CCN(C(=O)C2CC2)C1 [compound 73] | 111
O=C(Nc1cccc(-c2ccc(C3=NC4(CC4)C(=O)N3C[C@@H]3CCN(C(=O)C4CC4)C3)c(F)c2)c1)C1CC1 [compound 585] | 99

Incoming: inhibition at 10 µM for Cc1nn(C)c2ccc(-c3ccc(C4=NC5(CC5)C(=O)N4C[C@@H]4CCN(C(=O)C5CC5)C4)cc3)cc12 [compound 218] ?
Outgoing: 95

Incoming: What would you report for Cn1ncc2cc(-c3ccc(C4=NC5(CC5)C(=O)N4C[C@@H]4CCN(C(=O)C5CCO5)C4)cc3)ccc21 (some centres unmarked) [compound 204] ?
Outgoing: 103

Incoming: Also Cc1cc(-c2ccc3c(cnn3C)c2)ccc1C1=NC2(CC2)C(=O)N1CC1CN(C(=O)c2nccs2)C1 [compound 518] ?
Outgoing: 62

Incoming: Same for Cc1cc(-c2ccc3sccc3c2)ccc1C1=NC2(CC2)C(=O)N1CC1CN(C(=O)C2CC2)C1 [compound 288]
Outgoing: 107

Incoming: Ok, now O=C(C1CC1)N1CCC(CN2C(=O)C3(CCCC3)N=C2c2ccc(-c3ccc4cnccc4c3)cc2)CC1 [compound 77]
Outgoing: 103

Incoming: Likewise for CC(O)C(=O)N1CC[C@@H](CN2C(=O)C3(CCOCC3)N=C2c2ccc(-c3ccc4c(cnn4C)c3)cc2)C1 (some centres unmarked) [compound 673] ?
Outgoing: 61

----------
Molecular target: hFASN enzyme (full length) (Homo sapiens)
Construct: 10 μL hFASN enzyme (full length, 300 ng, purified in house); made in house
Assay: Fatty Acid Synthase (FASN) inhibition scintillation proximity assay
Format: biochemical
Details: read-out: Human FASN % inhibition @ 10 μM, 10 μM test compound
Description: In this assay, inhibition of FASN activity is measured using ^3H-acetyl-CoA and malonyl-CoA as substrates. ^3H-Acetyl CoA is converted to ^3H-palmitate through a series of reactions by the FASN protein, which contains 7 functional domains and carries out 7 enzymatic reactions to ultimately produce ^3H-palmitate. The assay principle is based upon the fact that ^3H-acetyl-CoA is hydrophilic and the end product, ^3H-palmitate is hydrophobic. […]
The following molecules are shown together with reported inhibition at 10 µM values.
Form entry: enter the amount, then its unit.

Here are 8 molecules together with their reported answers.
Cc1sc2ccc(-c3ccc(C4=NC5(CC5)C(=O)N4CC4CN(C(=O)C5CC5)C4)cc3F)cc2c1C | 73%
CS(=O)(=O)N1CC[C@@H](CN2C(=O)C3(CCOC3)N=C2c2ccc(-c3ccc4occc4c3)cc2)C1 (stereo partly shown) | 1%
Cc1cc(-c2ccc(-c3ccn(CC(C)C)n3)cc2)ccc1C1=NC2(CC2)C(=O)N1CC1CN(C(=O)C2(C)CC2)C1 | 94%
Cc1sc2ccc(-c3ccc(C4=NC5(CCN(CCO)CC5)C(=O)N4C[C@@H]4CCN(C(=O)C5CC5)C4)cc3)cc2c1C | 99%
Cc1cc2cc(-c3ccc(C4=NC5(CC5)C(=O)N4CC4CN(C(=O)C5CC5)C4)cc3F)ccc2o1 | 76%
COC(=O)N1CC2(C1)N=C(c1ccc(-c3ccc4occc4c3)cc1)N(C[C@@H]1CCN(C(=O)C3CC3)C1)C2=O | 96%
COC(=O)c1cccc(-c2ccc(C3=NC4(CC4)C(=O)N3C[C@@H]3CCN(C(=O)C4CC4)C3)cc2)c1 | 70%
CC(C)C(=O)N1CCC2(CC1)N=C(c1ccc(-c3ccc4cnccc4c3)cc1)N(CC1CN(C(=O)C3CC3)C1)C2=O | 112%

Now for the molecule whose inhibition at 10 µM we want.
Incoming: What value of measured inhibition at 10 µM is listed for `O=C(C1CC1)N1CCC(CN2C(=O)C3(CC3)N=C2c2ccc(-c3ccc(-c4ccncc4)cc3)cc2)CC1` ?
Outgoing: 63.2%
